Below, each entry is listed alongside its reported peptide exchange yield.
Molecular target: T1, HLA-A*03:01 (human)
T1 construct: Peptide-receptive MHC class I monomer after UV cleavage of a UV-sensitive ligand
Assay: UV-ligand exchange, anti-b2m ELISA; peptide exchange yield grade
Text: Candidate peptides for T cell based therapies according to the present invention were further tested for their MHC binding capacity (affinity). The individual peptide-MHC complexes were produced by UV-ligand exchange, where a UV-sensitive peptide is cleaved upon UV-irradiation and exchanged with the peptide of interest as analyzed. Only peptide candidates that can effectively bind and stabilize the peptide-receptive MHC molecules prevent dissociation of the MHC complexes. […]

[
  {
    "binder": "RLWDFTMNAK",
    "peptide exchange yield": "50 to 75%"
  },
  {
    "binder": "NLYDWSASY",
    "peptide exchange yield": "20 to 50%"
  },
  {
    "binder": "IVRDLSCRK",
    "peptide exchange yield": "50 to 75%"
  },
  {
    "binder": "RLPAADFTRY",
    "peptide exchange yield": "20 to 50%"
  },
  {
    "binder": "HLYYDVTEK",
    "peptide exchange yield": "50 to 75%"
  },
  {
    "binder": "KAYDQTHLY",
    "peptide exchange yield": "≥ 75%"
  }
]

meta.source: patent US20220098269A1
